# method-description: chemical genetic growth profiling, strain panel (AID 1159580);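 further: tested at 20 µM; growth read once vehicle control cultures reached saturation at 30 °C; lower values mean less growth of the strain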
# run-parameters: S. cerevisiae deletion strains, growth OD, locus YLR320W, strain mms22, hits give low values
Screen size: about 5,500 compounds; about 2,000 (36%) were called active. Inconclusive results (about 18%) are left out. This is one part of the list.
normalized growth under 1 gets condition met, anything at or over 1 gets condition not met.

Lab log: compare recorded normalized growth with 1; is it strictly lower for Nc1nc(N)c2nc(CNc3ccc(C(=O)NC(CCC(=O)O)C(=O)O)cc3)cnc2n1 (stereo unspecified) ?
condition not met

Lab log: compare recorded normalized growth with 1; is it strictly lower for C#C[C@]1(O)CCC2C3CCc4cc(OC)ccc4C3CC[C@@]21C (stereo partly specified) ?
condition met

Lab log: compare recorded normalized growth with 1; is it strictly lower for C#C[C@]1(O)CCC2C3CCc4cc(O)ccc4C3CC[C@@]21C (stereo partly specified) ?
condition met

Lab log: compare recorded normalized growth with 1; is it strictly lower for `COc1ccc(/C=C/C(=O)c2ccc(O)cc2O)cc1` ?
condition met

Lab log: compare recorded normalized growth with 1; is it strictly lower for CN(Cc1cnc2nc(N)nc(N)c2n1)c1ccc(C(=O)NC(CCC(=O)O)C(=O)O)cc1 (stereo unspecified) ?
condition met
